- measured on: Carbonic anhydrase 2 (Homo sapiens)
pKi: −log10 of the molar value.

{"compound smiles": "COC(=O)c1ccc(NC(=O)N/C=C/C=C/c2ccc3c(c2)OCO3)cc1", "pKi": "< 4.00"}

* * *

- measured on: Carbonic anhydrase 9 (Homo sapiens, UniProt Q16790)
observation type: Ki (µM)

{"compound smiles": "NS(=O)(=O)c1ccc(NC(=O)N/C=C/C=C/c2ccc3c(c2)OCO3)cc1", "modifier": "=", "recorded value": 0.0387}
{"compound smiles": "O=C(N/C=C/C=C/c1ccc2c(c1)OCO2)Nc1cccc(C(=O)O)c1", "modifier": "=", "recorded value": 24.8}
{"compound smiles": "CC(=O)c1ccc(NC(=O)N/C=C/C=C/c2ccc3c(c2)OCO3)cc1", "modifier": ">", "recorded value": 100}
{"compound smiles": "O=C(N/C=C/C=C/c1ccc2c(c1)OCO2)Nc1ccc(S(=O)(=O)Nc2nccs2)cc1", "modifier": ">", "recorded value": 100}
{"compound smiles": "O=C(N/C=C/C=C/c1ccc2c(c1)OCO2)Nc1ccccc1C(=O)O", "modifier": "=", "recorded value": 30.3}
